# target_of_assay: UniProt P25779
# test_name: biochemical
# measurement_setup: 0’ (no pre-incubation); sheet Screening results
Below, each entry is listed alongside its reported Cruzain Inhibition 0’.

>  <compound>
CN1CCN(c2cc(-c3ccc(F)cc3)nc(-c3ccncc3)n2)CC1

>  <Cruzain Inhibition 0’ (%)>
18

$$$$
>  <compound>
COc1ccc(C2=NN(C3CCCCCC3)C(=O)C2(C)C)cc1OCc1ccccn1

>  <Cruzain Inhibition 0’ (%)>
14

$$$$
>  <compound>
CC1COC(Cn2cncn2)(c2ccc(Oc3ccc(Cl)cc3)cc2Cl)O1 (stereo not drawn)

>  <Cruzain Inhibition 0’ (%)>
13

$$$$
>  <compound>
CCN(CC)S(=O)(=O)c1ccc(C(=O)Nc2cc(C)nn2-c2nc(C)c(C)c(=O)[nH]2)cc1

>  <Cruzain Inhibition 0’ (%)>
-13

$$$$
>  <compound>
Cc1cc(C(=O)Nc2ccc(-c3ccccc3)cc2)no1

>  <Cruzain Inhibition 0’ (%)>
3.7

$$$$
>  <compound>
CC1=NN(c2nc3ccccc3s2)C(=O)C1Cc1cccc2ccccc12 (stereo not drawn)

>  <Cruzain Inhibition 0’ (%)>
-23

$$$$
>  <compound>
Cc1nnc(NCc2cccc(Cl)c2)c2ccccc12

>  <Cruzain Inhibition 0’ (%)>
-1.4

$$$$
>  <compound>
COC(=O)c1c(NC(=O)c2c(F)c(F)c(F)c(F)c2F)sc2c1CCCCC2

>  <Cruzain Inhibition 0’ (%)>
-34

$$$$
>  <compound>
CC(C)c1ncc(-c2ccncc2)c(C2CCC(CNC(=O)c3cccnc3)CC2)n1 (stereo not drawn)

>  <Cruzain Inhibition 0’ (%)>
4

$$$$

###

Below, each entry is listed alongside its reported TbrCatL Inhibition 10’.
# target_of_assay: TbrCatL (Trypanosoma brucei rhodesiense, UniProt Q95PM0)
# Construct: Conor Caffrey (University of California San Diego)
# Sequence (Q95PM0 entry or part of it): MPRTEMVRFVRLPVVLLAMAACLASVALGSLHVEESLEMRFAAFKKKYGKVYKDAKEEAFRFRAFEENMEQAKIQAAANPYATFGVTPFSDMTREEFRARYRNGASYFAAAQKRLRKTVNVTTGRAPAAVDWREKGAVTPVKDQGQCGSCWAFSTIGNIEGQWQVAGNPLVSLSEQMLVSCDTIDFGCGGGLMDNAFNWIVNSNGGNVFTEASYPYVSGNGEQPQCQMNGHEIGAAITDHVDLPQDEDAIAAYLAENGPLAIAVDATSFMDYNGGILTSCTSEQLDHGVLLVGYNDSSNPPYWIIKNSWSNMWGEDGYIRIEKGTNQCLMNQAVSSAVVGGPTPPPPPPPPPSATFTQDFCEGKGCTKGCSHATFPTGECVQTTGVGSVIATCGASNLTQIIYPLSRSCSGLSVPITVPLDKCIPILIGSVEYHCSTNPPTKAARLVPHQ
# test_name: TbrCatL enzymatic inhibition assay (cleavage of fluorogenic substrate Z-FR-AMC);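 note: at 5 µM compound concentration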
# Format: biochemical
# measurement_setup: 10’ (pre-incubation); sheet Screening results
quantity_kind: TbrCatL Inhibition 10’

>  <compound>
O=C(C1CCCCC1)N1CC(=O)N2CCc3ccccc3[C@@H]2C1

>  <measurement>
5.7%

$$$$
>  <compound>
COc1ccccc1C(C)NCC(=O)Nc1cc(C(F)(F)F)ccc1Cl (stereo not drawn)

>  <measurement>
-10%

$$$$
>  <compound>
N#CCN(CCCCN1CCN(c2ccc(F)cc2)CC1)C(=O)OCc1ccccc1

>  <measurement>
5%

$$$$
>  <compound>
Cc1cc2ccccc2n1CC(=O)N1CC(C(=O)N2CCCCC2)Oc2ccccc21 (stereo not drawn)

>  <measurement>
10%

$$$$
>  <compound>
O[C@@H](c1cc(C(F)(F)F)nc2c(C(F)(F)F)cccc12)[C@H]1CCCCN1

>  <measurement>
-2.6%

$$$$
>  <compound>
COc1ccc(OC(C)C(=O)Nc2ccc(Cl)cc2C)cc1 (stereo not drawn)

>  <measurement>
-19%

$$$$
>  <compound>
c1ccc(-c2cc(N3CCCCC3)c3ccccc3n2)nc1

>  <measurement>
-2.4%

$$$$
>  <compound>
CC1=NN(c2nc3ccccc3s2)C(=O)C1Cc1cccc2ccccc12 (stereo not drawn)

>  <measurement>
-63%

$$$$
>  <compound>
CS(=O)(=O)Cc1nc2ccccc2oc1=O

>  <measurement>
19%

$$$$

###

# target_of_assay: cruzain (Trypanosoma cruzi, UniProt P25779)
# Sequence (P25779 123-337 limits assumed): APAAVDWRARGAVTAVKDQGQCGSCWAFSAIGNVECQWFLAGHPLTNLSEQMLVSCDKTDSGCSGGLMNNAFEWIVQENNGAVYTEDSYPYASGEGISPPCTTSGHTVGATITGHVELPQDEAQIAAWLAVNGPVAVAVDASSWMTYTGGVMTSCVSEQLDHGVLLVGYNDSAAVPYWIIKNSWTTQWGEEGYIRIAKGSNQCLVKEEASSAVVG
# test_name: biochemical
# measurement_setup: read-out: Inhibition at 100 µM (Mean ± SEM %) Cruzain 0′, 100 µM, no pre-incubation, solid samples

>  <compound>
COc1ccc(C2=NN(C3CCCCCC3)C(=O)C2(C)C)cc1OCCCCOc1ccc(-c2nn[nH]n2)cc1 [MMV690028]

>  <inhibition at 100 µM (%)>
100

$$$$
>  <compound>
O=C(NCCN1CCCC1)c1cc(NCCCCN2CCC(F)(F)CC2)nc2ccc(Cl)cc12 [MMV667494]

>  <inhibition at 100 µM (%)>
0

$$$$
>  <compound>
N#Cc1ccc(-c2cnc(N)c(-c3ccc(C(N)=O)cc3)n2)cc1 [MMV085499]

>  <inhibition at 100 µM (%)>
0

$$$$
>  <compound>
N=C(N)Nc1ccc(-c2ccc(-c3ccc(NC(=N)N)cc3Cl)o2)c(Cl)c1 [MMV688179]

>  <inhibition at 100 µM (%)>
100

$$$$

###

# target_of_assay: cruzain (Trypanosoma cruzi);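 for Cruzain 10’ Inhibition: at 5 µM compound concentration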
# test_name: biochemical
# measurement_setup: 10’ (pre-incubation time); sheet "Screening results"
Below, each entry is listed alongside its reported Cruzain 10’ Inhibition.

>  <compound>
CCCc1ccc(S(=O)(=O)Nc2ccc(CN3CCN(CC4CC4)CC3)cc2)cc1 [MMV688125]

>  <Cruzain 10’ Inhibition>
9%

$$$$
>  <compound>
CN1CCN(c2nccc3nc(-c4ccc(F)c(F)c4)[nH]c23)CC1 [MMV676260]

>  <Cruzain 10’ Inhibition>
1.2%

$$$$
>  <compound>
CCOc1ccccc1C(=O)Nc1cccc(-c2nc3ncccn3c2C)c1 [MMV019790]

>  <Cruzain 10’ Inhibition>
4%

$$$$
>  <compound>
CC1(C)Cc2c(c(N3CCOCC3)nc3snc(Br)c23)CO1 [MMV687794]

>  <Cruzain 10’ Inhibition>
27%

$$$$
>  <compound>
O=C(NCc1cc(Cl)cc(Cl)c1)c1c(C(F)(F)F)nc2ccccn12 [MMV687699]

>  <Cruzain 10’ Inhibition>
7%

$$$$
>  <compound>
CNc1cc(C)nc(C2CN(C(=O)c3n[nH]c4ccccc34)CCO2)c1 (stereo not drawn) [MMV689709]

>  <Cruzain 10’ Inhibition>
1.3%

$$$$
>  <compound>
O=C1O[C@@H](CO)CN1c1cc(F)c(C2=CCN(Cc3ccccc3)CC2)c(F)c1 [MMV687729]

>  <Cruzain 10’ Inhibition>
6%

$$$$
>  <compound>
Nc1ncc(Br)cc1-c1nc2cc(Cl)cnc2[nH]1 [MMV676358]

>  <Cruzain 10’ Inhibition>
8%

$$$$
>  <compound>
Cc1cc(NCCc2ccccc2)nc(NC(=N)Nc2ccc(Cl)cc2)n1 [MMV021660]

>  <Cruzain 10’ Inhibition>
14%

$$$$

###

Below, each entry is listed alongside its reported Cruzain 10’ Inhibition.
# target_of_assay: cruzain (Trypanosoma cruzi, UniProt P25779);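 for Cruzain 10’ Inhibition: at 5 µM compound concentration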
# test_name: biochemical
# measurement_setup: 10’ (pre-incubation time); sheet "Screening results"

>  <compound>
CC(C)(CN)c1nc(-c2ccc(Cl)c(O)c2)c(-c2ccnc(N)n2)[nH]1

>  <Cruzain 10’ Inhibition (%)>
-5.6

$$$$
>  <compound>
C[C@H]1COc2c(N3CCN(C)CC3)c(F)cc3c(=O)c(C(=O)O)cn1c23

>  <Cruzain 10’ Inhibition (%)>
6

$$$$
>  <compound>
CCOc1ccc(-c2nc(CNCCc3ccc(F)cc3)cs2)cc1

>  <Cruzain 10’ Inhibition (%)>
12

$$$$
>  <compound>
Clc1cccc(C(c2ccc(CN3CCNCC3)cc2)n2ccnc2)c1 (stereo not shown)

>  <Cruzain 10’ Inhibition (%)>
10

$$$$
>  <compound>
CC(C)(C)c1ccc(N[C@@H]2CCCC[C@H]2NC(=O)c2ccco2)cc1

>  <Cruzain 10’ Inhibition (%)>
-5

$$$$
>  <compound>
CCc1nc2ccc(Cl)cn2c1C(=O)NCc1ccc(N2CCC(c3ccc(OC(F)(F)F)cc3)CC2)cc1

>  <Cruzain 10’ Inhibition (%)>
1.8

$$$$
>  <compound>
CCCNC(=O)N1CCC2(CC1)CC(=O)c1cc(C)ccc1O2

>  <Cruzain 10’ Inhibition (%)>
18

$$$$
>  <compound>
Cc1nc(-c2cccc(NCc3ccccc3)c2)[nH]c1C

>  <Cruzain 10’ Inhibition (%)>
15

$$$$
>  <compound>
Cc1cccc(C(=O)Nc2ccnc(N(C)C3CCN(CC(C)C)CC3)c2)c1

>  <Cruzain 10’ Inhibition (%)>
7

$$$$
>  <compound>
NS(=O)(=O)c1cncc(-c2ccc3nccc(-c4cn[nH]c4)c3n2)c1

>  <Cruzain 10’ Inhibition (%)>
26

$$$$
>  <compound>
COc1ccc(Oc2ccc([C@@H](C)N(C)c3ncc4c(N)nc(N)nc4n3)cc2)cc1

>  <Cruzain 10’ Inhibition (%)>
12

$$$$
>  <compound>
Cn1c(=O)c2c(S(C)(=O)=O)snc2n(C)c1=O

>  <Cruzain 10’ Inhibition (%)>
2.8

$$$$
>  <compound>
Cc1cc(OCC(=O)Nc2ccc(C(C)C)cc2)n(C)c(=O)c1C#N

>  <Cruzain 10’ Inhibition (%)>
-6

$$$$
>  <compound>
O=C(NC1CC1)c1ccc(CSCc2ccccc2Cl)o1

>  <Cruzain 10’ Inhibition (%)>
-1.7

$$$$
>  <compound>
O=C([C@@H](c1ccc(Cl)cc1)c1cccnc1)N1CCN(c2ccc(C(F)(F)F)cc2)CC1

>  <Cruzain 10’ Inhibition (%)>
-3.2

$$$$
>  <compound>
FC(F)(F)c1cc(NCCc2ccccc2)nc(-c2ccccn2)n1

>  <Cruzain 10’ Inhibition (%)>
6

$$$$
>  <compound>
CN1CCN(c2nccc3[nH]c(-c4cccc(F)c4)cc23)CC1

>  <Cruzain 10’ Inhibition (%)>
-11

$$$$
>  <compound>
Clc1cccc(CO[C@H]2CCc3ccccc3[C@@H]2n2ccnn2)c1

>  <Cruzain 10’ Inhibition (%)>
-1.8

$$$$
>  <compound>
CN(C(=O)c1cc2c(-c3cncnc3)cccc2[nH]1)c1ccccc1

>  <Cruzain 10’ Inhibition (%)>
2.7

$$$$
